The reported measurements were obtained from paper PMC9482650.

Molecular target: T1, PDZD2_2, O15018
T1 sequence (O15018 329-429, limits assumed, looked up): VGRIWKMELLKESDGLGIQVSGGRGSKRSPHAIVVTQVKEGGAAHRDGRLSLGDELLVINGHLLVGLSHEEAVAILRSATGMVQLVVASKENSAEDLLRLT
Experiment: holdup assay
Set-up: key: below the threshold = too weak to quantify, mostly under pKd 3.1 to 4
Conditions: plain residues with an end cap or a label only (N-terminal biotin on a linker: ado-ado)
Measurement Kind: pKd

INSERT INTO results (binder, measurement_kind, result) VALUES
  ('NISARRFTLC [FAM167B, Q9BTA0]', 'pKd', 'below the threshold'),
  ('KEKASTETEC [TRPM1, Q7Z4N2]', 'pKd', 'below the threshold'),
  ('LVEEEEPMNL [HDAC7, Q8WUI4]', 'pKd', 'below the threshold');
